method-description: yeast display, Sf9 membrane polyspecificity reagent, FACS + sequencing; frameworks hold sequencing errors
assay-readout: polyreactivity (PSR sort gate)

Solved entries (count: 4):
{"seq": "QVQLVESGGGLVQAGGSLRLSCAASGRIFKVNAMGWYRQAPGKERELVAVINSRGGSTYYADSVKGRFTISRDNAKNTVYLQMNSLKPEDTAVYYCAAPLTYFKRVYYWGQGTQVTVSS", "polyreactivity (PSR sort gate)": "high polyreactivity"}
{"seq": "QVQLVESGGGLVQAGGSLGLSCAASGRTFSQYAMGWYRQAPGKERELVAAISWSGGYTYYADSVKGRFTISRDNAKNTVYLQMNSLKPEDTAVYYCAAVGKGSARSSYPVLYDYWGQGTQVTVSS", "polyreactivity (PSR sort gate)": "low polyreactivity"}
{"seq": "QVQLVESGGGLVQAGGSLRLSCAASGFTFYRNAMGWYRQAPGKERELVAAITWSGTSTYYADSVKGRFTISRDNAKNTVYLQMNSLKPEDTAVYYCNTVGYRGRSNSRFYYWGQGTQVTVSS", "polyreactivity (PSR sort gate)": "high polyreactivity"}
{"seq": "QVQLVESGGGLVQAGGSLRLSCAASGRTFTPNVMGWYRQAPGKERELVAAITQSGGRTYYADSVKGRFTISRDNAKNTVYLQMNSLKPEDTAVYYCNAERAGTYRYDYWGQGTQVTVSS", "polyreactivity (PSR sort gate)": "high polyreactivity"}

We now examine a further sequence.
Exercise: Supply reported polyreactivity (PSR sort gate) belonging to this sequence: `QVQLVESGGGKVQAGGSLRLSCAASGRIFSVYTMGWYSQAPGKERELVAAISSGASTNYADSVKGRFTISRDNAKNTVYLQMNSLKPEDTAVEYCNAQWYLRLGASKTWVDVDYWGQGTQVTVSS`
Solution: low polyreactivity

###

method-description: yeast display, Sf9 membrane polyspecificity reagent, FACS + sequencing; frameworks hold sequencing errors
assay-readout: polyreactivity (PSR sort gate)

{"seq": "QVQLVESGGGLDQAGGSLRLSCAASGIIFWYYAMGWYRQAPGKEMELVAAINWNGDSTHYADSVKGRFTISRDNAKNTVYLQMNILKPEDTAVYYCAARTYTLRGVYFSGYNYWGQATQVTVSS", "result": "low polyreactivity"}
{"seq": "QVQLVESGGGLVQAGGSLRLSCAASGRTFGRNAMGWYRQAPRKERELVAAISDRGVSTYYADSVKGRFTISRDNAKNTVYLQMNSLKPEDTAVYYCAAVFWVDILPGDYWGQGTQVTVSS", "result": "low polyreactivity"}
{"seq": "QVQLVESGGGLVQAGGSLRLSCAASGITFYGYTMGWYRQAPGKERELVATITRGGSTYYADSVKGRFTISRDNAKNSVYLQMNSLKPEDTAVYYCAADLKGNYYLGIARYVLYYWGQGTQVTVSS", "result": "low polyreactivity"}
{"seq": "QVQLQESGGGLVQAGGSLRLSCAASGSIFDGFNMGWYRQAPGKEREFVAAISYGASTYYADSVKGRFTVSRDNAKNSVYLQMNSLKPEDTAVYYCAVYDELYHVLVYWGRGTQVTVSS", "result": "low polyreactivity"}
{"seq": "QVQLVESGGGLVQAGGSLRLSCAASGRIFEINTMGWYRQAPGKERELVAAISRGGGSTYYADSVKGRFTISRDNAKNTVYLQMNSLKPEDTAVYYCAAASYYVEGDYWGQGTQVTVSS", "result": "low polyreactivity"}

Please give polyreactivity (PSR sort gate), item by item, for the list that follows.
1. QVQLVESGGGLVQAGGSLRLSCAASGFIFSYYAMGWYRQAPGKERELVATITSGGSTNYADSVKGRFTISRDNAKNTVYLQMNSLKPEVTAVNYCATRKYRVPRSYDWGQGTQVTVTS
2. QVQLVESGGGLVQAGGSLRLSCAASGSIFGNTMGWYRQAPGKEWEFVAAISSTGGNTYYADSVKGRFTISRDNAKITVYLQMNSLKPEDTAVYYCNRRYRYRFGYWGQGTQVTVSS
3. QVQLVESGGGLVQAGGSLRLICAASGRTYRLYAMGWYRQAPGKERELVAAISYSDGRTYYADSVKGRFTISRDNAKNTVYLQMNSLKPEDTALYYCAAETLYVSPYFYVVQYDYWGQGTQVTVSS
4. QVQLVESGGGLVQAGGSLRLSCAASGLTLSGYAMGWYRQAPGKERELVAAISSTGGSTYYADSVKGRFTISRDNAKNTVYLQMNSLKPEDTAVYYCAKGFSPTRVRLRYPRYDTYNHWGQGTQVTVSS
5. QVQQQESGGGLVQAGGSLRLSCAASGTIFQLTVMGRYRQAPGKDRELVASIDYGGNTNYADSVKGRFTISRDNAKNTVYLQMNCRKPEDTAVYYCAASSDSWTTHPYWGQGTQVTVRS
6. QVQLQEGGGLVQAGGSLRLSCAASGYISSPPAMGWYRQAPGKERAFVATIADGTSTYYADSVKGRFTISRDNAKNTVYLQMNSLKTEDTEVYYCAAAYNTEFYLSYWGQGTQVTVIS

Solution:
["high polyreactivity", "high polyreactivity", "high polyreactivity", "high polyreactivity", "low polyreactivity", "high polyreactivity"]

Please give polyreactivity (PSR sort gate), item by item, for the list that follows.
1. QVQLVETGGGLVQAGGSLRLSCAASGLTIHPYAKGCYRQAPGKERELVAAISSRGTSTYYADSVKGRFTISRDNAKNTVYLQMNSLKPEDTAVYYCAARHGPRAEAMYYWGQGTQVTVSS
2. QVQLVESGGGLVQAGGSLRLSCAASGRIFGKYAMGWYRQAPGKERELVAVITSRDGRTYYADSVKGRFTISRDNAKNTVYLQMNSLIPEDTAVYYCAADYWTGITPDAIGDYWGQGTQVTVSS

Solution:
1. high polyreactivity
2. low polyreactivity

Please give polyreactivity (PSR sort gate), item by item, for the list that follows.
1. QVQHVESGGGLVQAGGSLRLSCAASGFTFYSYVMGWYRQAPGKERELVAAITRGGSTYYADSVKGRFTISRDNAKNTVYLQMTSLKPEDTAVYYCAKRPSYGYNYWGHGTQVTVSS
2. QVQLVESGGGLVQAGGSLRLSCAASGSTFKYYAMGWYRQAPGKERELVATITWSGTSTNYADSVKGRFTISRDNAKHTVYLQMHSLKPEDTAVYYCAARSKRRNYDYWGQGTQVTVSS
3. QVQLVESGGGLVQAGGSLRLSCAASGFIFDYYAMGWYRQAPGKERELVAAITSRSGSTYYADSVKGRFTISRDNAKNTVYLQMNSLKPEDTAVYYCSRRFKYGSTAWRFYYWGQGTQVTVSS
4. QVQLVESCGGLVQAGGSLRLSCSSSGRIFRGNAMGWYRQAPGKERELVAAILTGVTTYYADSVKGRFTISRDNAKNTVYLQTNSLKPEDTAVYYCAAERPSRRSGYEYWGQGTQVTVSS

Solution:
low polyreactivity
high polyreactivity
high polyreactivity
low polyreactivity

###

method-description: yeast display, Sf9 membrane polyspecificity reagent, FACS + sequencing; frameworks hold sequencing errors

{"seq": "QVQLVESGGGLVQAGGSLRLSCAASGGIFRGYVMGWYRQAPGKERELVAAISYSGGNTYYADSVKGRFTISRDNAKNTVYLQMNSLKPEDTAVYYCDTVRSDFHSDDYWGQGTQVTVSS", "polyreactivity (PSR sort gate)": "low polyreactivity"}
{"seq": "QVQLVESGGGLVQAGGSLRLSCAASGSIFESYAMGCYRQAPGKERELVAAITKRGGSTYYADSVKGRFTISRDNSKNTFYLQMNSLKPEDTAVYYCNARSPGIGPIYDYWGQGTQVTVSS", "polyreactivity (PSR sort gate)": "low polyreactivity"}

###

method-description: yeast display, Sf9 membrane polyspecificity reagent, FACS + sequencing; frameworks hold sequencing errors
assay-readout: polyreactivity (PSR sort gate)

Solved entries (count: 4):
{"seq": "QVQLVESGGGLVQAGGSHRLSCAASGGTYITNAMGWYRQAPGKERELVAAITSGGRTTYADSVKGRFTISRDNAKNTVYLQMNSLKPEDTAVYYCAADHVYSYTYNFDYWGQGTLVTVSS", "result": "low polyreactivity"}
{"seq": "QVQLVESGGGLVQAGGSLRLSCAASGSTFGGYAMGWYRQAPGKERELVAAISFDGGSTYADSVKGRFTISRDNAKNTVYLQMNSLKPEDTAVYYCAVKFWLVIQFDYCGQGTQVTVSS", "result": "low polyreactivity"}
{"seq": "QVQLVESGGGLVQAGGSLRLSCAASGLIFYDNMGWYRQAPGKERELVAAISSSGGSTSYADSVKGRFTISRDNAKKTVYLQMNSLKPEDTAVYYCAAKWSHVRDGPKYDYWGQGTQVTVSS", "result": "low polyreactivity"}
{"seq": "QDQLVESGGGLVQAGGSLRLSCAASGRTFSTYAMGWYRQAHGKERELVARITSSGGSTYFADSVKGRFTISRDNAKNTVYLQMNSLKPEDTAVYYCAADAWSYWGYPYWWGYDYWGQGTQVTVSS", "result": "high polyreactivity"}

Exercise: Supply reported polyreactivity (PSR sort gate) belonging to this sequence: `QVQLVESGGGVVQAGGSLRLSCAASGRTYGYNAMGWYRPAPGTERELVAAITKSGVSTYYADSVKGRFTISRDNAKNTVYLQMNSLKPEDTAVYYCAVDSYYYSMDYWGQGTQVTVSS`
Solution: high polyreactivity
